molecular target: Phosphatidylinositol 4,5-bisphosphate 3-kinase catalytic subunit delta isoform (Homo sapiens, UniProt O00329); test: Inhibition of PI3Kdelta (unknown origin) using PIP2 as substrate by HTRF assay
Sequence (O00329 whole entry, canonical isoform): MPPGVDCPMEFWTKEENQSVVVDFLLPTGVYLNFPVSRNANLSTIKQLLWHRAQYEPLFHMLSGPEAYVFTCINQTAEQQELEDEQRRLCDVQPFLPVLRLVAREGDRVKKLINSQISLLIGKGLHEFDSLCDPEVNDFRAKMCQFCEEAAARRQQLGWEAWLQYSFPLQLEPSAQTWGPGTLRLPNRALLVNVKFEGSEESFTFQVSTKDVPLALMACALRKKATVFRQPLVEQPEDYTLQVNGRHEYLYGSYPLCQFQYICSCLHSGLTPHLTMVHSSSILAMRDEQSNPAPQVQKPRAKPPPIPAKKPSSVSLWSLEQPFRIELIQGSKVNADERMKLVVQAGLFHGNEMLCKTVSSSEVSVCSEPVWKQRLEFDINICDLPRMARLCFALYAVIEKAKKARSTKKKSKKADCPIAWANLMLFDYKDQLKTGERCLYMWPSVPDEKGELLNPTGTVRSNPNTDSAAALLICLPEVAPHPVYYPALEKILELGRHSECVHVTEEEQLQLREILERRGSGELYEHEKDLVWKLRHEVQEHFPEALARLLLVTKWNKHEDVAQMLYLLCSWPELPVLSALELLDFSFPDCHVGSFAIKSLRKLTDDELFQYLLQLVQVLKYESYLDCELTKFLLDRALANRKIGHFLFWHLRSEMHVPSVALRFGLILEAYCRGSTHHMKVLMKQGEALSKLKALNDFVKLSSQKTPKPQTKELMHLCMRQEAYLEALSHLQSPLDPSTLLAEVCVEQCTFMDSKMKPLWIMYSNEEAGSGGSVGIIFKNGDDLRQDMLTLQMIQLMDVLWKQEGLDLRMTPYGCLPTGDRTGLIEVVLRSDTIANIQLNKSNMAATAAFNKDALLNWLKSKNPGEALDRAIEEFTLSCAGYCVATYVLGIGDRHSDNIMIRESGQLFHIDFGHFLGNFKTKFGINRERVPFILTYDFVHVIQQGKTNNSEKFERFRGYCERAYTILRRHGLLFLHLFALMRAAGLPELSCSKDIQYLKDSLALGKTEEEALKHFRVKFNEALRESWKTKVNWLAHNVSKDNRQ
MEASURE NAME: IC50 (nM)

A = Nc1nc2cc(-c3nn(CC4CCCC4)c4ncnc(N)c34)ccc2o1
B = Nc1nc2cc(-c3nn(CC4CCCO4)c4ncnc(N)c34)ccc2o1 (stereo not drawn)
C = CCOC(Cn1nc(-c2ccc3oc(N)nc3c2)c2c(N)ncnc21)OCC
Q. Hello, I need these entries ordered by IC50, highest reading first. Thanks! The response must list the labels following the requested ordering.
A. C, B, A

---

pIC50: −log10 of the molar value.
Read-out record for Epithelial discoidin domain-containing receptor 1 (Homo sapiens): pIC50
MEASURE NAME: pIC50

I = Nc1nc2cc(-c3nn(CC4CCCO4)c4ncnc(N)c34)ccc2o1 (stereo not drawn)
II = CCOC(Cn1nc(-c2ccc3oc(N)nc3c2)c2c(N)ncnc21)OCC
III = Nc1nc2cc(-c3nn(CC4CCCC4)c4ncnc(N)c34)ccc2o1
Q. Could you arrange the 3 compounds above by pIC50, starting with the largest number? Form entry: labels listed in requested order.
A. III, I, II
